All values here come from ChEMBL document CHEMBL1649278.

Known Km of a selection of compounds
# Tested on: Klebsiella pneumoniae
# Procedure Text: Activity of Klebsiella pneumoniae 05-560 beta-lactamase IMP1 by spectrophotometry
Report only the number, with the unit µM understood.

Compound	System Tested	Km, µM
CO/N=C(\C(=O)N[C@@H]1C(=O)N2C(C(=O)O)=C(COC(C)=O)CS[C@H]12)c1csc(N)n1	Klebsiella pneumoniae	4
CO/N=C(\C(=O)N[C@@H]1C(=O)N2C(C(=O)[O-])=C(C[N+]3(C)CCCC3)CS[C@H]12)c1csc(N)n1	Klebsiella pneumoniae	11
CC1(C)S[C@@H]2[C@H](NC(=O)[C@H](N)c3ccccc3)C(=O)N2[C@H]1C(=O)O	Klebsiella pneumoniae	200

Next up:
[Q] Which Km value belongs to C[C@@H](O)[C@H]1C(=O)N2C(C(=O)O)=C(SCCNC=N)C[C@H]12 [IMIPENEM ANHYDROUS] ?
[A] 39
